system: symmetric dimethylation of arginine (SDMA) of PRMT5 substrates in MCF-7 cells; assay: PRMT5 Cell Target Engagement (TE) Assay; type: cell-based; conditions: Homo sapiens, MCF7, 72 h; MCF-7 cells treated for 3 days; nuclear SDMA by high content imaging; top concentration 10000 nM
endpoint: EC50 (nM)

Illustrative cases are given below, each with its answer.
> print(dat)
                                   molecule  unit  experimental.value
1  C[C@@]1(O)[C@@H](COc2ccc3cc(Br)c(N)nc3c2)O[C@@H](n2ccc3c(Cl)ncnc32)[C@@H]1O    nM                 131
2  C[C@]1(COc2ccc3cc(Br)c(N)nc3c2)C[C@@H](n2ccc3c(N)ncnc32)[C@H](O)[C@@H]1O    nM                 7.4
3  Cc1ncnc2c1ccn2[C@@H]1O[C@@H]2[C@@H](Oc3ccc4cc(F)c(N)nc4c3)CC[C@]2(O)[C@H]1O    nM                37.5
4  Cc1nc(N)c2ccn([C@@H]3C[C@@H]4[C@H](Cc5ccc6cc(Cl)c(N)nc6c5)CC[C@]4(O)[C@H]3O)c2n1 [Example 31, 2,2,2-trifluoroacetate]    nM                 0.8
5  Nc1nc2cc(C[C@@H]3CC[C@@]4(O)[C@@H]3O[C@@H](n3ccc5c(N)ncnc53)[C@@H]4O)c(F)cc2cc1F    nM                 2.8
6  Cc1ncnc2c1ccn2[C@@H]1O[C@@H]2[C@H](Cc3ccc4ccc(N)nc4c3)CC[C@]2(O)[C@H]1O    nM                 0.5
7  CC(C)(O)c1ncnc2c1ccn2[C@@H]1O[C@@H]2[C@@H](Oc3ccc4cc(Br)c(N)nc4c3)CC[C@]2(O)[C@H]1O    nM                5990
8  C[C@@]1(O)[C@@H](CCc2ccc3cc(Br)c(N)nc3c2)C[C@@H](n2ccc3c(N)ncnc32)[C@@H]1O    nM                12.4

A: Cc1nc(N)nc2c1ccn2[C@@H]1O[C@@H]2[C@@H](Oc3ccc4cc(Br)c(N)nc4c3)CC[C@]2(O)[C@H]1O
B: Cc1ncnc2c1ccn2[C@@H]1O[C@@H]2[C@H](Cc3ccc4cc(Br)c(N)nc4c3)CC[C@]2(O)[C@H]1O
C: Nc1nc2cc(O[C@H]3CC[C@@]4(O)[C@@H]3C[C@@H](n3ccc5c(N)ncnc53)[C@@H]4O)ccc2cc1Br [Example 119, 2,2,2-trifluoroacetate]
D: C#C[C@@]1(O)[C@@H](COc2ccc3cc(Br)c(N)nc3c2)O[C@@H](n2ccc3c(N)ncnc32)[C@@H]1O
E: Nc1nc2cc(C[C@@H]3CC[C@@]4(O)[C@@H]3O[C@@H](n3ccc5c(N)ncnc53)[C@@H]4O)ccc2cc1Cl
// query Output the entries ranked by EC50 from maximum down to minimum. Use the labels to give the ranking in the order requested.
// result C, D, A, E, B
(C: 180 nM, D: 20 nM, A: 4.4 nM, E: 1.2 nM, B: 0.5 nM)
